assaySystem: T1, CHO expressed human interferon gamma (hIFNγ) (human, UniProt P01579 24-161, glycosylated (highly glycosylated form purified))
T1 chain: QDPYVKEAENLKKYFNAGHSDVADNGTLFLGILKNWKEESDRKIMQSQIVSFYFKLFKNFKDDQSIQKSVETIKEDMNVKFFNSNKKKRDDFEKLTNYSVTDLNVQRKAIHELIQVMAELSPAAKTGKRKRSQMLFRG
assayNotes: BIAcore
Each entry below lists one item and its recorded Kd value.
Please reply with the bare figure in nM and do not write the unit itself.

Worked set:
binder: 57E IgG (antibody, V domains shown) VH: QVQLQESGPGLVKPSETLSLTCAVSGGSISSGGYSWSWIRQPPGKGLEWIGYIYHSGSTYYNPSLKSRVTISVDRSKNQFSLKLSSVTAADTAVYYCARGDWGYFDYWGQGTLVTVSS VL: NFMLTQPHSVSESPGKTVTISCTGSSGSIANNYVHWYQQRPGSAPTTVIFEDDQRPSGVPDRFSGSVDSSSNSASLSISGLKTEDEADYYCQSYDNSNSFVVFGGGTKLTVLG
unitInfo: nM
Kd: 200

binder: IFN-A IgG (antibody, V domains shown) VH: EVQLQQWGAGLLKPSETLSLTCAVYGGSFSGYYWSWIRQPPGKGLEWIGEINHSGSTNYNPSLKSRVTISVDTSKNQFSLKLSSVTAADTAVYYCARGWPTYVWGSYRPKGYFDYWGQGTLVTVSS VL: EIVLTQSPLSLPVTPGEPASISCRSSQSLLHTNEYNYLDWYLQKPGQSPQLLIYLGSNRAPGVPDRFSGSGSGTDFTLRISRVEADDVGVYYCMQALQTPRTFGQGTKLEIKR
unitInfo: nM
Kd: 18

binder: GP-A IgG (antibody, V domains shown) VH: QVQLVETGGGVVQPGRSLRLSCAASGFTFSSYAMHWVRQAPGKGLEWVAVISYDGSNKYYADSVKGRFTISRDNSKNTLYLQMNSLRAEDTAVYYCASDLVLTMTSRRAAFDIWGQGTMVTVSS VL: SYELTQPPSVSVSPGQTARITCSGDVLARKYARWFQQKPGQAPVLVIYKDRERPSGIPERFSGSTSGTTVTLTISGAQVEDEADYYCYSAADNRGVFGGGTKLTVLR
unitInfo: nM
Kd: 8

INPUT: Kd lookup needed for BS-A IgG (antibody, V domains shown) VH: QVQLQQWGAGLLKPSETLSLTCAVYGGSFSGYYWSWIRQPPGKGLEWIGEINHSGSTNYNPSLKSRVTISVDTSKNQFSLKLSSVTAADTAVYYCARGRARNWRSRFDYWGQGTLVTVSS VL: NFMLTQPHSVSESPGKTVTISCTGSSGSIASHYVQWYQQRPGSAPTNVIYEDKERPSGVPDRFSGSIDSSTNSASLTISGLKTEDEADYYCQSYDSSNQWVFGGGTKLTVLG , thanks.
OUTPUT: 6

Sourced from patent US20030099647A1
